Target: Serine/threonine-protein kinase D1 (Homo sapiens) (UniProt Q15139);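 note: each value is an averaged percent inhibition of PRKD1 kinase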
Sequence (whole entry): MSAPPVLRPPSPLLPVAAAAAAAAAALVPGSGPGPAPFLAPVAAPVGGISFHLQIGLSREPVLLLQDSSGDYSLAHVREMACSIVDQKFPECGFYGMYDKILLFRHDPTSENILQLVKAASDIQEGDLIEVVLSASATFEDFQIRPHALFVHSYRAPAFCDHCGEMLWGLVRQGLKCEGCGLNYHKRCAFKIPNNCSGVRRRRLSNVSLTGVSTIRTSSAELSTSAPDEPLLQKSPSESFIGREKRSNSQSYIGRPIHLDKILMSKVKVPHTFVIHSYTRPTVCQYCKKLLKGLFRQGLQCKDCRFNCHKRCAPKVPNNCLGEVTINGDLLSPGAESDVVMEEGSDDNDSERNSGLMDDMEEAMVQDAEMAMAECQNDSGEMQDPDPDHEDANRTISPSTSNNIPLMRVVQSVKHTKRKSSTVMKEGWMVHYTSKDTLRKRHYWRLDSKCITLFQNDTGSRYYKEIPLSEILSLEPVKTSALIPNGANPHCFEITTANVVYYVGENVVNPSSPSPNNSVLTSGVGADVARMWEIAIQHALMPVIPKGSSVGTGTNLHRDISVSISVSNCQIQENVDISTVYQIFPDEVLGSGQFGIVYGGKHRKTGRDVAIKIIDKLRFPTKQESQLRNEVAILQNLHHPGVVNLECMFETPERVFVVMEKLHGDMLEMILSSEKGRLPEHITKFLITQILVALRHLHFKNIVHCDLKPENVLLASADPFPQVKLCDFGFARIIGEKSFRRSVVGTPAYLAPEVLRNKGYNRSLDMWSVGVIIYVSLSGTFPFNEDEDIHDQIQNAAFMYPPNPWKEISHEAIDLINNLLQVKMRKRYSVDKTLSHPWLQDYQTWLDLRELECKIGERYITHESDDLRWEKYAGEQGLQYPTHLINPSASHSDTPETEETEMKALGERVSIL
Details: at 1 µM
MEASURE: inhibition (%)
# number only, unit % dropped from output

Here is how some molecules turned out for inhibition.
Inquiry: Please indicate inhibition recorded for Fc1ccc(-c2ncn(C3CCNCC3)c2-c2ccnc(Oc3ccc(F)c(F)c3)n2)cc1
Reply text: 7.05

Inquiry: Please indicate inhibition recorded for N#Cc1ccc(Oc2nccc(-c3c(-c4ccc(F)cc4)ncn3C3CCNCC3)n2)cc1
Reply text: 8.1

More entries:
Inquiry: Please indicate inhibition recorded for COc1ccc(C2=C(N3CCc4ccccc43)C(=O)NC2=O)cc1
Reply text: 9.24

Inquiry: Please indicate inhibition recorded for NS(=O)(=O)c1ccc(N/N=C2\C(=O)Nc3ccc(C(=O)NCCCn4ccnc4)cc32)cc1
Reply text: 22.9

Inquiry: Please indicate inhibition recorded for CN1CCN(CCCNc2nc3ccc(Oc4ccc(NC(=O)Nc5cc(C(F)(F)F)ccc5F)cc4)cc3[nH]2)CC1
Reply text: -1.77

---

Parameter inhibition: see the listing below.
Target: Serine/threonine-protein kinase Chk1 (Homo sapiens) (UniProt O14757);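 note: reported figure is the mean percent inhibition of CHEK1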
Sequence (O14757 whole entry): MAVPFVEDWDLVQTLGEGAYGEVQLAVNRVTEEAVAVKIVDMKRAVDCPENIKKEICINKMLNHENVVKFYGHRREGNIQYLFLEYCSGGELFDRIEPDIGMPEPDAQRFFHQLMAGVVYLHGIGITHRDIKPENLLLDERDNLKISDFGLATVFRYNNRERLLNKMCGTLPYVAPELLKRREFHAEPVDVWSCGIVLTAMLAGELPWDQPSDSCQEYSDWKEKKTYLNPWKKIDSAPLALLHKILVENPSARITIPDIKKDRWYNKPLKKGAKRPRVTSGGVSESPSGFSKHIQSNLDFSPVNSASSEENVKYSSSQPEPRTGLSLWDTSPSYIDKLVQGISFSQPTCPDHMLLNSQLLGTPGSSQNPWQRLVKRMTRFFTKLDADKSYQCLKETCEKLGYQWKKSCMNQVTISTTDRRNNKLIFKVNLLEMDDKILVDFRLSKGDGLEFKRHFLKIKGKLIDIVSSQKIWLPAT
Settings: at 0.1 µM
# number only, unit % dropped from output

Here is how some compounds turned out for inhibition.
Inquiry: Please indicate inhibition recorded for CS(=O)(=O)CCNCc1ccc(-c2ccc3ncnc(Nc4ccc(OCc5ccccc5)c(Br)c4)c3c2)o1
Reply text: 0.41

Inquiry: Please indicate inhibition recorded for NC(=O)Cc1ccccc1Oc1nccc(-c2c(-c3ccc(F)cc3)ncn2C2CCNCC2)n1
Reply text: 0.75

Inquiry: Please indicate inhibition recorded for O=C(Nc1n[nH]c2nc(-c3ccc(O)cc3)c(Br)cc12)C1CC1
Reply text: 8.74

Inquiry: Please indicate inhibition recorded for CCS(=O)(=O)c1ccc(OC)c(Nc2ncc(-c3cccc(-c4ccccc4F)c3)o2)c1
Reply text: 1.03

Inquiry: Please indicate inhibition recorded for COc1cc(Nc2ncc3c(C)nc(-c4cccc(C(F)(F)F)c4)n3n2)cc(OC)c1OC
Reply text: 1.23

More entries:
Inquiry: Please indicate inhibition recorded for Fc1ccc(-c2nc3n(c2-c2ccncc2)CCS3)cc1
Reply text: 0.32

Inquiry: Please indicate inhibition recorded for O=C(Nc1n[nH]c2cc(-c3cc(F)ccc3F)ccc12)C1CC1
Reply text: -0.4
